Test system: M14 melanoma
Assay: NCI-60 one-dose screen, 48 h
Details: 10 µM unless noted
About 83,000 compounds went through this panel and 20% of them were active in at least one assay; those are over-represented in the sample as a whole. Active and inactive are the calls of the source. The calls were made as follows: active = growth percent below 10; inactive = the rest.
Can you answer with just one of these options? active, inactive

molecule: COc1ccc2c(c1)NC1=C(C(=O)OC1)C2c1cc(OC)c2c(c1)OCO2 (centres undefined)
target: M14 melanoma
group_label: active
--
molecule: Cc1ccc(S(=O)(=O)NCCNc2nccc(-c3c(-c4cccc(N)c4)nc4sccn34)n2)cc1
target: M14 melanoma
group_label: inactive
--
molecule: CC1=NC2=CC=CC3=NC(C(Cl)(Cl)Cl)=NC(=N1)N23
target: M14 melanoma
group_label: inactive

Any idea what this test logged for `C=C1C(=O)O[C@H]2[C@H]1CC/C(Cn1cc(CNC(=O)Cc3cn(C(=O)c4ccc(Cl)cc4)c4ccc(OC)cc34)nn1)=C\CC[C@@]1(C)O[C@@H]21` ?
active

The measurements presented in this section are drawn from PubChem BioAssay (NCI).
